Target: SGK3 (Homo sapiens)
Sequence (Q96BR1 1-496): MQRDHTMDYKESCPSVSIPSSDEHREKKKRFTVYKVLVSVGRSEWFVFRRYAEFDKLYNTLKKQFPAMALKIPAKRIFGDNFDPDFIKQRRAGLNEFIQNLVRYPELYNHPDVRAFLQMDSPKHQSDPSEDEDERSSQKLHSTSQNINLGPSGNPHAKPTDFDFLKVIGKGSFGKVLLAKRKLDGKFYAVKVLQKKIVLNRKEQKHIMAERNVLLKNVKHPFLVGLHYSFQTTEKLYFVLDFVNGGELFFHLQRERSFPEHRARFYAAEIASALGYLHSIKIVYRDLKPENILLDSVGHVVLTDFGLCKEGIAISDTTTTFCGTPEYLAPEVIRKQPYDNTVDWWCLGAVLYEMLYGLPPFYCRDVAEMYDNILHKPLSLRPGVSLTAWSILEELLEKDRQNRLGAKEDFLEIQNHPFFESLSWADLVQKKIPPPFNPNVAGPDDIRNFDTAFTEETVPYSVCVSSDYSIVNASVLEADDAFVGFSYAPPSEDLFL
Experiment: SGK3 degradation in HEK293 cells, immunoblot
Assay type: cell-based
Parameters: reduced endogenous SGK isoform or S6K1 expression when administered to HEK293 cells for 48 h; endogenous in cells; host or cells: HEK293
Conditions: HEK293, 48 h, 0.001 μM, Figure 2
Provide the recorded remaining activity at 0.001 µM for the entries that follow.
Numbers only, in %.

Parameters: items (list). Returns: remaining activity at 0.001 µM for each item.
1. Cc1ccc(F)c(S(=O)(=O)Nc2ccc(-c3nc(OC[C@H]4CN(CCCCCCOCCCCCCOCC(=O)N[C@H](C(=O)N5C[C@H](O)C[C@H]5C(=O)NCc5ccc(-c6scnc6C)cc5)C(C)(C)C)CCO4)c4cn[nH]c4n3)cc2)c1
2. Cc1ccc(F)c(S(=O)(=O)Nc2ccc(-c3nc(OC[C@H]4CN(CCOCCOCCOCC(=O)N[C@H](C(=O)N5C[C@H](O)C[C@H]5C(=O)NCc5ccc(-c6scnc6C)cc5)C(C)(C)C)CCO4)c4cn[nH]c4n3)cc2)c1

Output:
1. 100
2. 94

----------
Exercise: state measured % Activity Remaining for each of the compounds provided.
tested on: PHK; experiment: kinase profiling panel; format: biochemical; conditions: 1 µM
Answers are plain numbers, in %.

Cc1ccc(F)c(S(=O)(=O)Nc2ccc(-c3nc(OC[C@H]4CN(CCCCCCOCCOCCOCC(=O)N[C@H](C(=O)N5C[C@H](O)C[C@H]5C(=O)NCc5ccc(-c6scnc6C)cc5)C(C)(C)C)CCO4)c4cn[nH]c4n3)cc2)c1 [SGK3-PROTAC1]; 113
Cc1ccc(F)c(S(=O)(=O)Nc2ccc(-c3nc(OC[C@H]4CN(CCCCCCOCCOCCOCC(=O)N[C@H](C(=O)N5C[C@@H](O)C[C@H]5C(=O)NCc5ccc(-c6scnc6C)cc5)C(C)(C)C)CCO4)c4cn[nH]c4n3)cc2)c1 [cisSGK3-PROTAC1]; 122
COc1ccc(Cl)c(S(=O)(=O)Nc2ccc(-c3nc(OC[C@H]4CNCCO4)c4c(C)n[nH]c4n3)cc2)c1 [290-R, reference compound]; 97

Lab note: next compound to report on.
Input: Please look up its % Activity Remaining: Cc1ccc(F)c(S(=O)(=O)Nc2ccc(-c3nc(OC[C@H]4CNCCO4)c4cn[nH]c4n3)cc2)c1 [308-R, reference compound]
Output: 83
